Origin of measurements: PubChem BioAssay (NCI)

What follows is a collection of GI50 values obtained with MDA-MB-468 breast.

-- ask Look up GI50 of `O=C1OCc2c1cc(F)cc2[N+](=O)[O-]` and report it.
-- reply > 100 µM

-- ask Look up GI50 of `COc1ccc(-c2nn(-c3cccc(NC(=O)Nc4ccc(Cl)c(C(F)(F)F)c4)c3)cc2-c2ccncc2)cc1Cl` and report it.
-- reply 1.63 µM

-- ask Look up GI50 of `COc1ccc(-c2cnc3ccnn3c2-c2cc(OC)c(OC)c(OC)c2)cc1` and report it.
-- reply 2.64 µM

-- ask Look up GI50 of `CCOC(=O)/C(=C/c1ccc([N+](=O)[O-])cc1)C(=O)c1ccccc1` and report it.
-- reply 2.31 µM

-- ask Look up GI50 of `O=C1C(=O)c2ccccc2-c2ccccc21` and report it.
-- reply 1.7 µM

-- ask Look up GI50 of `O=C(COc1ccc(NC(=O)Nc2ccc(Cl)cc2)cc1)N/N=C/c1ccccc1` and report it.
-- reply 3.23 µM

-- ask Look up GI50 of `C=C1C(=O)O[C@H]2[C@H]1CC/C(COC(=O)CCCCCCCCC(=O)OC/C1=C/CC[C@@]3(C)O[C@H]3[C@H]3OC(=O)C(=C)[C@@H]3CC1)=C\CC[C@@]1(C)O[C@@H]21` and report it.
-- reply 2.27 µM

-- ask Look up GI50 of `CCCCCCCC/C=C/CCCCCCCC1=NC(C)(C)CN1C(C)C` and report it.
-- reply 1.31 µM

-- ask Look up GI50 of `CN[C@]12CC3(C=CC(=O)C=C3)O[C@@]1(Cc1ccc(OC)cc1)N(C)C(=O)N2` and report it.
-- reply 1.25 µM

###

# Tested on: MDA-MB-468 breast
# assay info: NCI tumour cell line growth inhibition, 48 h
Would you kindly list TGI for each of these compounds?
Value expressed in µM; do not type the unit.

-- ask Look up TGI of `COc1cc(/C=C/C(=O)c2ccc(Nc3ncnc4ccccc34)cc2)cc(OC)c1` and report it.
-- reply 10.7

-- ask Look up TGI of `CN(C)CCCN(c1nc(C(Cl)(Cl)Cl)ns1)c1nc(C(Cl)(Cl)Cl)ns1` and report it.
-- reply 3.11

-- ask Look up TGI of `C=C1C(=O)O[C@H]2[C@H]1CC/C(Cn1cc(Cn3ccc4ccccc43)nn1)=C\CC[C@@]1(C)O[C@@H]21` and report it.
-- reply 2.48

-- ask Look up TGI of `N#CC(=S)Nc1ccc(Cl)c(Cl)c1` and report it.
-- reply 52.2

-- ask Look up TGI of `CCOC(=O)/C(=C/c1ccc([N+](=O)[O-])cc1)C(=O)c1ccccc1` and report it.
-- reply 4.6

-- ask Look up TGI of CCN(CC)c1ccc2c(c1)Oc1nc(N)c(C#N)c(N)c1C2Sc1ccc(C)cc1 (stereo not given) and report it.
-- reply 3.14

-- ask Look up TGI of `Cn1cc(NC(=O)c2cc(NC(=O)c3ccc(/C=C/c4ccccc4)cc3)cn2C)cc1C(=O)NCCCN1CCOCC1` and report it.
-- reply 18.5

###

Would you kindly list TGI for each of these compounds?
# System: MDA-MB-468 breast
# assay info: NCI tumour cell line growth inhibition, 48 h

-- ask Look up TGI of `O=C(Nc1n[nH]c2nc(-c3ccco3)ccc12)C1CC1` and report it.
-- reply > 25 µM

-- ask Look up TGI of `C/C(CC(=O)NNc1ccc([N+](=O)[O-])cc1)=N\Nc1ccc([N+](=O)[O-])cc1` and report it.
-- reply > 100 µM

-- ask Look up TGI of `COc1ccc(-c2cnc3ccnn3c2-c2cc(OC)c(OC)c(OC)c2)cc1` and report it.
-- reply > 100 µM
